Readings of inhibition at 50 µM for the listed molecules
tested on: Aorta; test: Vasorelaxant activity in potassium depolarized guinea pig aortic strip assessed as inhibition of calcium-induced contraction at 50 uM; format: functional; conditions: Cavia porcellus
Numbers only here, please. The scale is %.

[
  {
    "MOLECULE": "C=C[C@H]1CN2CC[C@H]1C[C@@H]2[C@@H](O)c1ccnc2ccc(OC)cc12 [QUINIDINE]",
    "READING UNIT": "%",
    "inhibition at 50 µM": 30
  }
]

For the next question, use this molecule.
response.value for `Cc1cccc(C)c1NC[C@@H]1CCCN2CCCC[C@H]12` (field: inhibition at 50 µM) = 27

---

Readings of AV conduction time for the listed compounds
experiment: Cardioprotective effect in Langendorff perfused guinea pig spontaneously beating […] assessed as atrioventicular conduction time at 0.1 uM (RVb = 50 to 55 +/- 1 to 4 ms); format: functional; conditions: Cavia porcellus
Numbers only here, please. The scale is ms.

[
  {
    "COMPOUND": "Cc1cccc(C)c1NCC[C@@H]1CCCN2CCCC[C@H]12",
    "EXPERIMENTAL RESULT": 57
  },
  {
    "COMPOUND": "C=C[C@H]1CN2CC[C@H]1C[C@@H]2[C@@H](O)c1ccnc2ccc(OC)cc12 [QUINIDINE]",
    "EXPERIMENTAL RESULT": 57
  },
  {
    "COMPOUND": "CCCCc1oc2ccccc2c1C(=O)c1cc(I)c(OCCN(CC)CC)c(I)c1",
    "EXPERIMENTAL RESULT": 55
  },
  {
    "COMPOUND": "COc1cc(NC(C)=O)c(Cl)cc1C(=O)NC[C@@H]1CCCN2CCCC[C@H]12",
    "EXPERIMENTAL RESULT": 53
  },
  {
    "COMPOUND": "Cc1cccc(C)c1NC(=O)CSC[C@@H]1CCCN2CCCC[C@H]12 [LUPINYLTHIOACETYLANILIDE]",
    "EXPERIMENTAL RESULT": 53
  }
]

response.value for `Cc1cccc(C)c1NCCSC[C@@H]1CCCN2CCCC[C@H]12` (field: AV conduction time) = 55

response.value for `Cc1cc(C(=O)c2ccccc2)ccc1NC(=O)C[C@@H]1CCCN2CCCC[C@H]12` (field: AV conduction time) = 53

---

assay: Cardioprotective effect in Langendorff perfused guinea pig spontaneously beating […] assessed as duration of ventricular action potential at 0.1 uM (RVb = 140 to 161 +/- 2 to 8 ms); format: functional, Cavia porcellus, Cardiac ventricle
OBSERVATION TYPE: Activity (ms)
Numbers only here, please. The scale is ms.

[
  {
    "COMPOUND": "Cc1cc(C(=O)c2ccccc2)ccc1NC(=O)C[C@@H]1CCCN2CCCC[C@H]12",
    "READING UNIT": "ms",
    "Activity": 155
  }
]

response.value for `Cc1cccc(C)c1NCC[C@@H]1CCCN2CCCC[C@H]12` (field: Activity) = 160

response.value for Cc1cccc(C)c1NC(=O)CSC[C@@H]1CCCN2CCCC[C@H]12 [LUPINYLTHIOACETYLANILIDE] (field: Activity) = 157

response.value for `Cc1cccc(C)c1NCCSC[C@@H]1CCCN2CCCC[C@H]12` (field: Activity) = 168

response.value for `COc1cc(NC(C)=O)c(Cl)cc1C(=O)NC[C@@H]1CCCN2CCCC[C@H]12` (field: Activity) = 150

---

assay: Cardioprotective effect in Langendorff perfused guinea pig spontaneously beating […] assessed as intraventicular conduction time at 0.1 uM (RVb = 19 to 24 +/- 1 to 2 ms); format: functional; settings: Cavia porcellus
OBSERVATION TYPE: intraventricular conduction time (ms)
Numbers only here, please. The scale is ms.

Please review the entries below; each comes with its answer.
[
  {
    "COMPOUND": "COc1cc(NC(C)=O)c(Cl)cc1C(=O)NC[C@@H]1CCCN2CCCC[C@H]12",
    "intraventricular conduction time [ms]": 21
  },
  {
    "COMPOUND": "Cc1cccc(C)c1NC(=O)CSC[C@@H]1CCCN2CCCC[C@H]12 [LUPINYLTHIOACETYLANILIDE]",
    "intraventricular conduction time [ms]": 24
  }
]

response.value for `Cc1cccc(C)c1NCCSC[C@@H]1CCCN2CCCC[C@H]12` (field: intraventricular conduction time) = 24

response.value for `Cc1cccc(C)c1NCC[C@@H]1CCCN2CCCC[C@H]12` (field: intraventricular conduction time) = 20

response.value for `Cc1cc(C(=O)c2ccccc2)ccc1NC(=O)C[C@@H]1CCCN2CCCC[C@H]12` (field: intraventricular conduction time) = 23

response.value for `C=C[C@H]1CN2CC[C@H]1C[C@@H]2[C@@H](O)c1ccnc2ccc(OC)cc12` (field: intraventricular conduction time) = 31

response.value for `CCCCc1oc2ccccc2c1C(=O)c1cc(I)c(OCCN(CC)CC)c(I)c1` (field: intraventricular conduction time) = 21

---

test: Cardioprotective effect in Langendorff perfused guinea pig spontaneously beating […] assessed as duration of ventricular action potential at 0.01 uM (RVb = 140 to 161 +/- 2 to 8 ms); type: functional, Cavia porcellus, Cardiac ventricle
Readings of Activity for the listed compounds
Numbers only here, please. The scale is ms.

[
  {
    "COMPOUND": "Cc1cccc(C)c1NCCSC[C@@H]1CCCN2CCCC[C@H]12",
    "Activity [ms]": 162
  },
  {
    "COMPOUND": "Cc1cccc(C)c1NC(=O)CSC[C@@H]1CCCN2CCCC[C@H]12 [LUPINYLTHIOACETYLANILIDE]",
    "Activity [ms]": 155
  }
]

For the next question, use this compound.
response.value for `Cc1cccc(C)c1NCC[C@@H]1CCCN2CCCC[C@H]12` (field: Activity) = 157

---

test system: Aorta; assay: Vasorelaxant activity in potassium depolarized guinea pig aortic strip assessed as inhibition of calcium-induced contraction at 50 uM; format: functional; details: Cavia porcellus
OBSERVATION TYPE: inhibition at 50 µM
A complete answer gives the number followed by the unit.

Aorta inhibition at 50 µM of `COc1ccc2c(c1)nc(Cc1ccccc1)c(=O)n2C[C@H]1CCCN2CCCC[C@@H]12` is 18%

Aorta inhibition at 50 µM of CCN(CC)CC(=O)Nc1c(C)cccc1C [LIDOCAINE] is 14%

Aorta inhibition at 50 µM of `Cc1cccc(C)c1NCC[C@@H]1CCCN2CCCC[C@H]12` is 28%
